experiment: Aqueous solubility of the compound incubated for 3 days by shake flask method; type: physicochemical; settings: water; time 3 day
quantity_measured: solubility thermodynamic at 72 h (µM)
One number for each entry, in µM.

Ask | # lookup: solubility thermodynamic at 72 h of O=c1nc(N2CCN(S(=O)(=O)C3CC3)CC2)sc2c([N+](=O)[O-])cc(C(F)(F)F)cc12
Reply | 15.9

====

test system: Mycobacterium tuberculosis; test: Antimycobacterial activity against Mycobacterium tuberculosis H37Rv ATCC 27294 assessed as reduction in bacterial growth incubated for 7 days by MABA analysis; format: functional; settings: H37Rv ATCC 27294, 168 h, time 7 day
quantity_measured: MIC (µM)
One number for each entry, in µM.

Please review the following examples before continuing.
line_notation=O=C(CCCc1cc2ccccc2[nH]1)N1CCN(c2nc3ccccc3c3ccccc23)CC1 readout_number=3.48
line_notation=O=C(c1ccncc1)N1CCN(c2nc3ccccc3c3ccccc23)CC1 readout_number=4.23
line_notation=CC(C)(C)c1ccc(S(=O)(=O)N2CCN(c3nc4ccccc4c4ccccc34)CC2)cc1 readout_number=3.39

Turning now to a further compound:
Ask | # lookup: MIC of Cc1cn2c(C(=O)NCc3ccc(N4CCN(c5ccc(C(F)(F)F)cn5)CC4)c(F)c3)cnc2s1
Reply | 0.004
